Recorded pKd, one value per entry.
# Assay Target: T1, RRPPGFSPFR-biotin (mouse)
# T1 construct: also called KLP-b; KLP-biotin
# T1 peptide: RRPPGFSPFR-biotin
# Assay Comment: Biacore, biotin-peptide on SA chip;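 also: purified antibodies injected as twofold dilutions from 0.1 to 10 nM in HBS-EP over streptavidin-captured biotinylated BKR1 or BKR2 ligand peptides, with a random-peptide flow cell as reference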
Ends that are not written are not given here.
pKd here: minus log base 10 of the concentration, concentration in moles per litre.

1. humanized F151 variant HC2b/LC2a (antibody, human IgG1, V domains shown, also called LC2axHC2b) VH: QIQLVQSGAEVKKPGASVKVSCKASGYSFTDYNIYWVKQSPGKGLEWIGYFDPYNGNTGYNEKFRGKATLTVDKSSSTAYMHLSSLTSEESAVYYCANYYRYDDHAMDYWGQGTSVTVSS VL: DIVMTQSPSSLSASVGDRVTISCKSSQSLLYSSNQKNYLAWYQQKPGKSPKPLIYWASTRESGVPDRFSGSGSGTDFTLTISSVQAEDLATYYCQQYYSYPWTFGGGTKLEIK | 11.24
2. humanized F151 variant HC2c/LC2b (antibody, human IgG1, V domains shown, also called LC2bxHC2c) VH: QIQLVQSGAEVKKPGASVKVSCKASGYSFTDYNIYWVKQSPGKGLEWIGYFDPYNGNTGYNQKFRGKATLTVDKSSSTAYMHLSSKTSEESAVYYCANYYRYDDHAMDYWGQGTSVTVSS VL: DIVMTQSPSSLSASVGDRVTISCKSSQSLLYSSNQKNYLAWYQQKPGKSPKPLIYWASTRESGVPDRFSGSGSGTDFTLTISSVQAEDKATYYCQQYYSYPWTFGGGTKLEIK | 10.70
3. humanized F151 variant HC1/LC1 (antibody, V domains shown, also called LC1xHC1) VH: EIQLVQSGPEVKKPGASVKVSCKASGYSFTDYNIYWVKQSPGKSLEWIGYFDPYNGNTGYNQKFRGKATLTVDKSSSTAFMHLSSLTSEDSAVYYCANYYRYDDHAMDYWGQGTSVTVSS VL: DIVMSQSPSSLAASVGDRVTMSCKSSQSLLYSSNQKNYLAWYQQKPGKSPKPLIYWASTRESGVPDRFTGSGSGTDFTLTISSVQAEDLAIYYCQQYYSYPWTFGGGTKLEIK | 11.26

# evaluate next
Inquiry: pKd lookup needed for humanized F151 variant HC2a/LC2a (antibody, human IgG1, V domains shown, also called LC2axHC2a) VH: QIQLVQSGAEVKKPGASVKVSCKASGYSFTDYNIYWVKQSPGKGLEWIGYFDPYNGNTGYNQKFRGKATLTVDKSSSTAYMHLSSLTSEESAVYYCANYYRYDDHAMDYWGQGTSVTVSS VL: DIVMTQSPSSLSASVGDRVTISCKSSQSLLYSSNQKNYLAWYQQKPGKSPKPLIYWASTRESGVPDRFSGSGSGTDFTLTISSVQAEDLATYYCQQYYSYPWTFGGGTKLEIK , thanks.
Reply text: 10.36
